- System: UGT72B27
- Construct: recombinant GST fusion (pGEX-4T-1) from E. coli BL21(DE3) pLysS, purified on GST resin
- Test Details: UDP-Glo luminescent UDP release assay, 384-well
- Assay type: biochemical, Vitis vinifera
- Assay Context: 100 µM UDP-glucose, 50 mM Tris/HCl pH 7.5, 30 °C, 10 min, heat stop; read-out: b. UDP-Glo^TM Assay / KM
The threshold is inclusive: Km of exactly 40 µM counts as class 1; values below receive class 0.

Km >= 40 µM for Oc1cc(O)cc(O)c1 ?
class 0

Please indicate if the recorded Km for Oc1ccccc1 meets or exceeds 40 µM.
class 1

Does the reported Km for COc1cc(C)cc(OC)c1O fall at or above the 40 µM mark?
class 1

Check the entry CC1=C(O)C(=O)C(C)O1 (stereo not shown) : does Km equal or exceed 40 µM?
class 1

Has Cc1ccc(C(C)C)c(O)c1 a recorded Km greater than or equal to 40 µM?
class 0

State whether the measured Km reaches 40 µM, counting equality as reaching it, for COc1cccc(OC)c1O
class 0

hey, is Km for this one >= 40 µM? COc1ccccc1O
class 0

Please check the record Cc1cccc(O)c1 and state if its Km is at or above 40 µM.
class 0
